Measured T/C values are reported for all entries that follow.
System: P388 leukemia ip, CD2F1 mice, survival T/C
assay.name: NCI In Vivo Anticancer Drug Screen. Data for tumor model P388 Leukemia (intraperitoneal) in CD2F1 (CDF1) mice
conditions.used: endpoint: median survival time; dose: 50.0 mg/kg/injection; schedule: Q01DX009 (ip); vehicle: saline; higher = longer survival
Inconclusive results and toxic doses are left out.

Previously resolved entries follow.
Query block: What reported T/C corresponds to CNC(=S)N(C)C on P388 leukemia ip, CD2F1 mice, survival T/C?
Result block: 98 % of control

Query block: What reported T/C corresponds to S=C(Nc1ccc(Cl)c(Cl)c1)SC1CCCCC1 on P388 leukemia ip, CD2F1 mice, survival T/C?
Result block: 91 % of control

Query block: What reported T/C corresponds to CCCCCCCCCCCCNCC(=O)O on P388 leukemia ip, CD2F1 mice, survival T/C?
Result block: 113 % of control

Others:
Query block: What reported T/C corresponds to NCCC(=O)NC(Cc1cnc[nH]1)C(=O)O (centres undefined) on P388 leukemia ip, CD2F1 mice, survival T/C?
Result block: 104 % of control

====

Test system: P388 leukemia ip, CD2F1 mice, survival T/C
assay.name: NCI In Vivo Anticancer Drug Screen. Data for tumor model P388 Leukemia (intraperitoneal) in CD2F1 (CDF1) mice
conditions.used: endpoint: median survival time; dose: 50.0 mg/kg/injection; schedule: Q01DX005 (ip); vehicle: Klucel (hydroxypropylcellulose) (HPC); higher = longer survival
Inconclusive results and toxic doses are left out. Square brackets hold non-standard residues; d marks the D form. Peptide text beside a SMILES is read from it. ξ: configuration not given here. ξY = NC(Cc1ccc(O)cc1)C(=O)O
Measured T/C values are reported for all entries that follow.

Previously resolved entries follow.
Query block: What value of measured T/C is listed for O=C1CC(c2ccccc2)=NN1c1ccccc1 ?
Result block: 101 % of control

Query block: What value of measured T/C is listed for C1OCOCO1 ?
Result block: 95 % of control

Query block: What value of measured T/C is listed for COC1OC(COS(=O)(=O)c2ccc(C)cc2)C2OC(C)(C)OC12 (stereo unspecified) ?
Result block: 95 % of control

Query block: What value of measured T/C is listed for O=C(c1ccccc1)c1cnc2ccccc2c1 ?
Result block: 101 % of control

Query block: What value of measured T/C is listed for Cc1nc2c(cnn2C)c(=O)n1-c1ccccc1Cl ?
Result block: 103 % of control

Let's switch to this molecule now.
Query block: What value of measured T/C is listed for NCC(=O)NC(Cc1ccc(O)cc1)C(=O)NCC(=O)O (stereo unspecified) (H-Gly-[ξY]-Gly-OH) ?
Result block: 99 % of control

====

System: P388 leukemia ip, CD2F1 mice, survival T/C
assay.name: NCI In Vivo Anticancer Drug Screen. Data for tumor model P388 Leukemia (intraperitoneal) in CD2F1 (CDF1) mice
conditions.used: endpoint: median survival time; dose: 200.0 mg/kg/injection; schedule: Q01DX005 (ip); vehicle: saline; higher = longer survival
Inconclusive results and toxic doses are left out.
measured.parameter: T/C

Previously resolved entries follow.
Query block: What value of measured T/C is listed for NCC(=O)NCC(=O)NC(CCCN=C(N)N)C(=O)O (centres undefined) ?
Result block: 99 % of control

Query block: What value of measured T/C is listed for CC(=O)C(N)CC(C)C (centres undefined) ?
Result block: 107 % of control

Others:
Query block: What value of measured T/C is listed for CC(C)CC(NC(=O)CN)C(=O)O (centres undefined) ?
Result block: 99 % of control

Query block: What value of measured T/C is listed for O=C(O)C1(N(CCO)CCO)CCCC1 ?
Result block: 106 % of control
